molecular target: androgen receptor (rat ventral prostate cytosol) (Rattus norvegicus); construct: from tissue; host or cells: ventral prostate of castrated male Sprague Dawley or Wistar rats, cytosol; experiment: Androgen Receptor Binding Using Rat Ventral Prostate Cytosol; details: rat cytosol; concentration 1000 nM; 1 µM
PARAMETER: % Inhibition (%)
Give the value, in units of %, as a plain number.

O=[N+]([O-])c1cc2cc(C3(O)CCN(Cc4ccc(Cl)cc4)CC3)[nH]c2cc1C(F)(F)F [compound 40] ... −2.5
O=[N+]([O-])c1cc2cc(C3(O)CCN(Cc4ccc(Cl)cc4)CC3)[nH]c2cc1C(F)(F)F [compound 41] ... 20
COc1cccc(CN2CCC(O)(c3cc4cc([N+](=O)[O-])c(C(F)(F)F)cc4[nH]3)CC2)c1 [compound 39] ... 6

Read the next record carefully.
Reported % Inhibition (androgen receptor (rat ventral prostate cytosol) (Rattus norvegicus)) for entry COc1cccc(CN2CCC(O)(c3cc4cc([N+](=O)[O-])c(C(F)(F)F)cc4[nH]3)CC2)c1 [compound 38] is 16

----------
biological target: androgen receptor (rat ventral prostate cytosol) (Rattus norvegicus); construct: from tissue; host or cells: ventral prostate of castrated male Sprague Dawley or Wistar rats, cytosol; assay: Androgen Receptor Binding Using Rat Ventral Prostate Cytosol; conditions: rat cytosol; concentration 3000 nM
Measured % Inhibition, listed per entry for reference.
Numeric answer plus unit only.

CC(O)(Sc1ccc(N)cc1)c1cc2cc([N+](=O)[O-])c(C(F)(F)F)cc2[nH]1 (racemic) ... 12.4%

# evaluate next
Entry CN(C)c1ccc(S(=O)(=O)CC(C)(O)c2cc3cc(Cl)c(C(F)(F)F)cc3[nH]2)cc1 (racemic) ; % Inhibition = −30%

----------
biological target: androgen receptor (rat ventral prostate cytosol) (Rattus norvegicus); construct: from tissue; host or cells: ventral prostate of castrated male Sprague Dawley or Wistar rats, cytosol; assay: Androgen Receptor Binding Using Rat Ventral Prostate Cytosol; conditions: rat cytosol; concentration 1000 nM
PARAMETER: % Inhibition
Field note: include the unit after the figure.

// % Inhibition lookup, compound = `CS(=O)(=O)n1c(C2(O)CCN(C(=O)c3ccc(Cl)cc3)CC2)cc2cc(Cl)c(C(F)(F)F)cc21` , result: 2%

----------
Molecular target: androgen receptor (rat ventral prostate cytosol) (Rattus norvegicus)
Construct: from tissue; host or cells: ventral prostate of castrated male Sprague Dawley or Wistar rats, cytosol
Sequence (P15207 1-902): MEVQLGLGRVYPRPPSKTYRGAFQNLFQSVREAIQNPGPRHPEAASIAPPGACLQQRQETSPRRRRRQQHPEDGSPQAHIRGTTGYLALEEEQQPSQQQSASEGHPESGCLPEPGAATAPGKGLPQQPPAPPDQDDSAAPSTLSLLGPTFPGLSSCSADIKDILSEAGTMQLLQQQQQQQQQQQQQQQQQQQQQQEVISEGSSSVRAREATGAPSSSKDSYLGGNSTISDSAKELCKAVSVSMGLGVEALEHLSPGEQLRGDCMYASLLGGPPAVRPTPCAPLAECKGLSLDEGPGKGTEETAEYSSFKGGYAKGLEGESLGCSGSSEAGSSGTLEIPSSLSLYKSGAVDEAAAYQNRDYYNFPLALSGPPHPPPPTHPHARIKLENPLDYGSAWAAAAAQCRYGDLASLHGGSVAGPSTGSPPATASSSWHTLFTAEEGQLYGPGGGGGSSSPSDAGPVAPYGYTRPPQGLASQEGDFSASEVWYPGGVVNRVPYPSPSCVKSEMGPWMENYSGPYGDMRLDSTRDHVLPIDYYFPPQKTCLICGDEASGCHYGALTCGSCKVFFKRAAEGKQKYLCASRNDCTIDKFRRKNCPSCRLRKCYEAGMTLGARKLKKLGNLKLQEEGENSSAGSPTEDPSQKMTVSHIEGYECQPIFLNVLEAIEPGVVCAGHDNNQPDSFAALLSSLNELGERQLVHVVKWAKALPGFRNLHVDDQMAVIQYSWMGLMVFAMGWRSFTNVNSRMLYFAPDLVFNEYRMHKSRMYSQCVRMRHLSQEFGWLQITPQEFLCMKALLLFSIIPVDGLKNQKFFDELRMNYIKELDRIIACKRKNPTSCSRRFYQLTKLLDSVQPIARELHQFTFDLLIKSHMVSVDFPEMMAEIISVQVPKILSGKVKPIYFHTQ
Assay: Androgen Receptor Binding Using Rat Ventral Prostate Cytosol
Details: rat cytosol; read-out: IC50
PARAMETER: IC50 (µM)
Write down the numeric answer in µM and omit the unit.

Here are 7 compounds together with their reported answers.
CS(=O)(=O)n1c(C2(O)CCNCC2)cc2cc(Cl)c(C(F)(F)F)cc21 ... 6
OC1(c2cc3cc(Cl)c(C(F)(F)F)cc3[nH]2)CCN(Cc2ccc(F)cc2)CC1 ... 7
COc1cccc(CN2CCC(O)(c3cc4cc(Cl)c(C(F)(F)F)cc4[nH]3)CC2)c1 ... 4.7
OC1(c2cc3cc(Cl)c(C(F)(F)F)cc3[nH]2)CCN(Cc2ccc(Cl)cc2)CC1 ... 4.05
Cc1ccc(CN2CCC(O)(c3cc4cc([N+](=O)[O-])c(C(F)(F)F)cc4[nH]3)CC2)cc1 [Compound #42] ... 7.1
CC(C)(C)c1ccc(CN2CCC(O)(c3cc4cc(Cl)c(C(F)(F)F)cc4[nH]3)CC2)cc1 ... 43
O=[N+]([O-])c1cc2cc(C3(O)CCN(Cc4ccc(Cl)cc4)CC3)[nH]c2cc1C(F)(F)F [compound 41] ... 2.3

The reported value for O=[N+]([O-])c1cc2cc(C3(O)CCN(Cc4ccc(Cl)cc4)CC3)[nH]c2cc1C(F)(F)F [compound 40] in terms of IC50 is 3.8

Value source: patent US8394971B2
